assay: Quantitative High-Throughput drug screen in 47 multiple myeloma cell lines against the NCATS MIPE library collection: NCIH929_DSMZ cell viability assay (AID 1918978); conditions: NCI-H929 myeloma viability, CellTiter-Glo ATP, 48 h; series mostly up to 45.8 µM; further: nearly all actives have a fitted effect of over 35% in size
Inconclusive results are not listed. Calls of active or inactive are those of the source. The call rests on the fitted dose curve; in most records, active means well fitted cell-killing curve with a large enough effect; inconclusive means small, poorly fitted or top-dose-only effect; inactive means no such curve, though single readings can be large or run the other way.
Use one of these outcomes when replying: Y for active, N for inactive

Q. State the result this test recorded for O=C(NC1CCNCC1)c1[nH]ncc1NC(=O)c1c(Cl)cccc1Cl .
A. Y

Q. State the result this test recorded for O=C(C=Cc1cccnc1)NCCCCC1CCN(C(=O)c2ccccc2)CC1 .
A. Y

Q. State the result this test recorded for C1Cc2[nH]nc(-c3nn[nH]n3)c2C1 .
A. N

Q. State the result this test recorded for CC(C)(O)c1cc2nc(-c3cnc(N)nc3)nc(N3CCOCC3)c2s1 .
A. Y

Q. State the result this test recorded for CN(C)Cc1c(C(=O)NCCOc2ccc(C(=O)NO)cc2)oc2ccccc12 .
A. Y

Q. State the result this test recorded for Nc1nc(Nc2ccc(S(N)(=O)=O)cc2)nn1C(=O)c1c(F)cccc1F .
A. Y

Q. State the result this test recorded for COc1cc(C(=O)NS(=O)(=O)c2ccccc2C)ccc1Cc1cn(C)c2ccc(NC(=O)OC3CCCC3)cc12 .
A. Y

Q. State the result this test recorded for O=C(C=Cc1c(C(=O)O)[nH]c2cc(Cl)cc(Cl)c12)Nc1ccccc1 .
A. N

Q. State the result this test recorded for Cc1cc(Nc2ncnc3ccc(-c4ccc(CNCCS(C)(=O)=O)o4)cc23)ccc1Oc1ccn2ncnc2c1 .
A. Y

Q. State the result this test recorded for CC(=O)OCC(=O)[C@@]1(O)[C@H](C)C[C@H]2[C@@H]3C=C(C)C4=Cc5c(cnn5-c5ccccc5)C[C@]4(C)[C@@H]3[C@@H](O)C[C@@]21C .
A. Y

Q. State the result this test recorded for CC(=O)c1c(C)c2cnc(Nc3ccc(N4CCNCC4)cn3)nc2n(C2CCCC2)c1=O .
A. Y

Q. State the result this test recorded for C[C@]1(CO)CN(c2cc(C(=O)Nc3ccc4c(c3)-c3c(c(C(N)=O)nn3-c3ccc(F)cc3)CC4)c(Cl)cn2)C[C@@]1(C)CO .
A. Y

Q. State the result this test recorded for CCCCCN(CCC12CC3CC(CC(C3)C1)C2)C(=O)NCCCc1ccncc1 .
A. Y

Q. State the result this test recorded for CC(C)C[C@H](NC(=O)CNC(=O)c1cc(Cl)ccc1Cl)B(O)O .
A. Y

Q. State the result this test recorded for CC1(C)CCC(c2ccc(Cl)cc2)=C(CN2CCN(c3ccc(C(=O)NS(=O)(=O)c4ccc(N[C@H](CCN5CCOCC5)CSc5ccccc5)c(S(=O)(=O)C(F)(F)F)c4)cc3)CC2)C1 .
A. Y

Q. State the result this test recorded for Cn1c2ccccc2c2c3c(c4c5ccccc5n(CCC#N)c4c21)CNC3=O .
A. Y

Q. State the result this test recorded for CNC(=O)c1ccccc1Nc1nc(Nc2ccc(N3CCOCC3)cc2OC)ncc1Cl .
A. Y

Q. State the result this test recorded for Nc1ccn([C@@H]2CS[C@H](CO)O2)c(=O)n1 .
A. Y

Q. State the result this test recorded for COc1cc2c(Nc3ccc(NC(=O)c4ccccc4)cc3)ncnc2cc1OCCCN1CCOCC1 .
A. Y

Q. State the result this test recorded for Cc1c(C)n(Cc2ccc(-c3ccccc3C(=O)O)cc2)c2ccc(C(=O)N[C@@H](C)c3ccc([N+](=O)[O-])cc3)cc12 .
A. Y

Q. State the result this test recorded for CN(C)c1nc(Cc2ccc(NC(=O)c3ccc4ccccc4c3)cc2)nc(Cl)c1CC(=O)O .
A. N

Q. State the result this test recorded for Cc1cccc(C=NNc2cc(N3CCOCC3)nc(OCCc3ccccn3)n2)c1 .
A. Y

Q. State the result this test recorded for O=C(O)Cn1nnc(-c2cc(N3CCC(Oc4cc(F)ccc4Br)CC3)no2)n1 .
A. N

Q. State the result this test recorded for N#Cc1c(O)c2c(-c3ccc(-c4ccccc4O)cc3)csc2[nH]c1=O .
A. N

Q. State the result this test recorded for CC(C)c1cnn2c(NCc3ccccc3)cc(N[C@@H](CO)[C@H](O)CO)nc12 .
A. Y

Q. State the result this test recorded for COc1cc(C(C)C)c2c(c1)S(=O)(=O)N(COc1cc(=O)n3cccc(OCCN4CCCCC4)c3n1)C2=O .
A. Y

Q. State the result this test recorded for O=C(NCCCNc1nc(Nc2cccc(NC(=O)N3CCCC3)c2)ncc1I)c1cccs1 .
A. Y

Q. State the result this test recorded for c1nc2nc(Nc3ccc(N4CCOCC4)cc3)nc(NC3CCCCC3)c2[nH]1 .
A. Y

Q. State the result this test recorded for NC(=O)c1cccc2cn(-c3ccc([C@@H]4CCCNC4)cc3)nc12 .
A. Y

Q. State the result this test recorded for CNC(=O)c1nn(C)c2c1C(C)(C)Cc1cnc(Nc3ccc(N4CCN(C)CC4)cc3)nc1-2 .
A. Y

Q. State the result this test recorded for Cc1cc(Nc2cc(NC(=O)c3c(Cl)cccc3Cl)ccn2)nc(N)n1 .
A. Y

Q. State the result this test recorded for CC[C@@]1(O)C(=O)OCc2c1cc1n(c2=O)Cc2cc3cc(O)ccc3nc2-1 .
A. Y

Q. State the result this test recorded for Fc1cc(-c2cccc3ncc(-c4cnn(C5CCNCC5)c4)nc23)cc(F)c1CN1CCOCC1 .
A. Y

Q. State the result this test recorded for COc1cc(=C2C=c3ccccc3=N2)[nH]c1=Cc1[nH]c(C)cc1C .
A. Y

Q. State the result this test recorded for C[C@@H]1CN(CC(=O)Nc2ccc3c(c2)Cc2cccc(-c4cc(=O)cc(N5CCOCC5)o4)c2S3)C[C@H](C)O1 .
A. Y

Q. State the result this test recorded for Cc1coc2c1C(=O)C(=O)c1c-2ccc2c1CCCC2(C)C .
A. Y

Q. State the result this test recorded for CCN(CC)CCCCNc1ncc2cc(-c3cc(OC)cc(OC)c3)c(NC(=O)NC(C)(C)C)nc2n1 .
A. Y

---

assay: qHTS profiling of the MIPE4 collection as inhibitors of Plasmodium falciparum (HB3) proliferation (AID 743347);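 further: plate controls were DMSO vehicle wells for no effect and artemisinin wells for full effect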; settings: P. falciparum HB3 in erythrocytes, SYBR Green DNA, 72 h; at 28.5 µM (top of the series) unless noted
measure: growth, % of control

Q. Can you look up the measured growth, % of control of Nc1nc(Nc2ccc(S(N)(=O)=O)cc2)nn1C(=O)c1c(F)cccc1F for me?
A. 9.06%

Q. Can you look up the measured growth, % of control of CN(C)Cc1c(C(=O)NCCOc2ccc(C(=O)NO)cc2)oc2ccccc12 for me?
A. 6.43%

Q. Can you look up the measured growth, % of control of C=CC(=O)Nc1cccc(Oc2nc(Nc3ccc(N4CCN(C)CC4)cc3OC)ncc2Cl)c1 for me?
A. 4.13%

Q. Can you look up the measured growth, % of control of C=C1C(=CC=C2CCCC3(C)[C@@H]([C@H](C)C=CC=CC(O)(CC)CC)CC[C@@H]23)C[C@@H](O)C[C@@H]1O (stereo partly drawn) for me?
A. 15%

Q. Can you look up the measured growth, % of control of CC1(C)CCC(c2ccc(Cl)cc2)=C(CN2CCN(c3ccc(C(=O)NS(=O)(=O)c4ccc(N[C@H](CCN5CCOCC5)CSc5ccccc5)c(S(=O)(=O)C(F)(F)F)c4)cc3)CC2)C1 for me?
A. 9.9%

Q. Can you look up the measured growth, % of control of CC(NCc1ccc2c(c1)nc(NC(=O)c1ccc(-c3cn[nH]c3)s1)n2CC(C)(C)O)C(C)(C)C (stereo not drawn) for me?
A. 3.84%

Q. Can you look up the measured growth, % of control of OCc1ccc(-c2ccc(-c3ccc(CO)s3)o2)s1 for me?
A. 64.5%

Q. Can you look up the measured growth, % of control of O=C(Nc1cn[nH]c1-c1nc2ccc(CN3CCOCC3)cc2[nH]1)NC1CC1 for me?
A. 4.19%

Q. Can you look up the measured growth, % of control of C=C1C(=CC=C2CCC[C@]3(C)[C@@H]([C@H](C)C=C[C@H](C)C(C)C)CC[C@@H]23)C[C@@H](O)C[C@@H]1O for me?
A. 9.22%

Q. Can you look up the measured growth, % of control of O=C(C=Cc1cccc(S(=O)(=O)Nc2ccccc2)c1)NO for me?
A. 8.45% [at 57.5 µM]

Q. Can you look up the measured growth, % of control of CCS(=O)(=O)c1cccc(-c2cc(C(=O)NC3CCN(C)CC3)c(C)c3[nH]c4ncc(C)cc4c23)c1 for me?
A. 7.05%

Q. Can you look up the measured growth, % of control of Cc1nc2cnc3ccc(C#Cc4cccnc4)cc3c2n1-c1ccc(C(C)(C)C#N)cc1 for me?
A. 3.51%

Q. Can you look up the measured growth, % of control of O=C(NCCCNc1nc(Nc2cccc(NC(=O)N3CCCC3)c2)ncc1I)c1cccs1 for me?
A. 4.4%

Q. Can you look up the measured growth, % of control of COc1ccc(C(=O)CC2(O)C(=O)Nc3c(Cl)ccc(Cl)c32)cc1 (stereo not drawn) for me?
A. 62.1%

Q. Can you look up the measured growth, % of control of CC1(C)OC2=C(C(=O)c3ccccc3C2=O)[C@H](NCc2ccccc2)[C@H]1O for me?
A. 3.94%

Q. Can you look up the measured growth, % of control of Cn1c(=O)n(-c2ccc(C(C)(C)C#N)cc2)c2c3cc(-c4cnc5ccccc5c4)ccc3ncc21 for me?
A. 2.31%

Q. Can you look up the measured growth, % of control of Cc1nc(N)ncc1-c1nc(N2CCOCC2)c2sc(C(C)(C)O)cc2n1 for me?
A. 1.99%

Q. Can you look up the measured growth, % of control of O=c1[nH]nc(Sc2ncc([N+](=O)[O-])s2)n1-c1ccc2c(c1)OCCO2 for me?
A. 62.4%
